src = patent US20170022281A1

target: T1, murine PRLR (Biacore antigen) (murine, UniProt Q08501 20-229, limits assumed)
T1 construct: also called muPRLR
T1 sequence (looked up): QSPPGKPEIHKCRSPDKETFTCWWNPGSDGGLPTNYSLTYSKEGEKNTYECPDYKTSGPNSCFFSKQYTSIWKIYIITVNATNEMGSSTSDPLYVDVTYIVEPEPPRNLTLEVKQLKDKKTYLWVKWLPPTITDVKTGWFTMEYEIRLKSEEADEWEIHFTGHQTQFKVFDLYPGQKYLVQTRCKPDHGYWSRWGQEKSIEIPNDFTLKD
protocolNotes: SPR Biacore
Class (by Kd) -- LOW (below 0.04 µM), MEDIUM (0.04 µM to below 0.3 µM), HIGH (0.3 µM or more)

>  <binder>
Ab55 (antibody, human IgG1, kappa, V domains shown, humanized from Ab7 (back mutations on Ab39); G1; also called Ab4 HC.1a.2 and Ab4 LC.1a) VH: EVQLVQSGAEVKKPGSSVKVSCKASGYTFTSYWIHWVRQAPGQGLEWIGEIDPSDSYTNYNQKFKGRATLTVDRSSSTAYMELSSLRSEDTAVYYCGRSFFTNWFAYWGQGTLVTVSS VL: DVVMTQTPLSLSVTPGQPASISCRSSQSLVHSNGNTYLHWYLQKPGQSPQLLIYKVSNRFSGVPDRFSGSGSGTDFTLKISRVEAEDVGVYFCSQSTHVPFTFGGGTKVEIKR

>  <qualitativeLabel>
MEDIUM

$$$$
>  <binder>
Ab27 (antibody, human IgG1, kappa, V domains shown, humanized from Ab5; G1; also called Ab2 HC.1 and Ab2 LC.1a) VH: EVQLVQSGAEVKKPGSSVKVSCKASGYTFTSFWMHWVRQAPGQGLEWMGVIDPSDTYTNYNQKFKGRVTITADESTSTAYMELSSLRSEDTAVYYCARGDYSNWFTYWGQGTLVTVSS VL: DVVMTQTPLSLSVTPGQPASISCRSSQRLVHSNGNTYLHWYLQKPGQSPQLLIYKVSNRFSGVPDRFSGSGSGTDFTLKISRVEAEDVGVYFCSQSTHVPWTFGGGTKVEIKR

>  <qualitativeLabel>
LOW

$$$$
>  <binder>
chAb5 (antibody, human IgG1, kappa, V domains shown, chimeric, murine variable and human G1/kappa constant regions) VH: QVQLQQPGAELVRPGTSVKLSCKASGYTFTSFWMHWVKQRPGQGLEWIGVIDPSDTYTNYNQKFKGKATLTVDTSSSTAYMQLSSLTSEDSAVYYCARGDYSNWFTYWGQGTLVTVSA VL: DVVMTQTPLSLPVSLGDQASISCRSSQRLVHSNGNTYLHWYLQKPGQSPKLLIYKVSNRFSGVPDRFSGSGSGTDFTLKISRVEAEDLGVYFCSQSTHVPWTFGGGTKLEIKT

>  <qualitativeLabel>
LOW

$$$$
>  <binder>
Ab7 (antibody, V domains shown, murine monoclonal, isotype G1; also called murine Ab7) VH: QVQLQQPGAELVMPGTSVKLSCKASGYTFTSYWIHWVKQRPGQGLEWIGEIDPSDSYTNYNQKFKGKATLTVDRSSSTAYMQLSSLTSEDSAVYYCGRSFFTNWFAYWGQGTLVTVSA VL: DVVMTQTPLSLPVSLGDQASISCRSSQSLVHSNGNTYLHWYLQKPGQSPKLLIYKVSNRFSGVPDRFSGSGSGTDFTLKINRVEAEDLGVYFCSQSTHVPFTFGSGTKLEIK

>  <qualitativeLabel>
MEDIUM

$$$$

Read the next record carefully.
Query block: Kindly identify the class of Ab8 (antibody, V domains shown, murine monoclonal, isotype G2b; also called murine Ab8) VH: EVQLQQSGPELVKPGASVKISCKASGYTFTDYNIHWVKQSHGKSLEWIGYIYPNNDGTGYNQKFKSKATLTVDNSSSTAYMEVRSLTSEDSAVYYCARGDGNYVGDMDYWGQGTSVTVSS VL: DIQMTQSPASLSASVGETVTITCRASENIYSYLAWYQQKQGKPPQLLVYNAKTLAEGVPSRFSGGGSGTQFSLKINSLQPEDFGSYYCQHHYATPFTFGSGTKLEIK .
Result block: MEDIUM
